- Tested on: M14 melanoma
- RUN_DESCRIPTION: NCI-60 one-dose screen, 48 h (100 = growth as untreated, 0 = no growth, -100 = all killed)
- CONDITION_CONTEXT: 10 µM unless noted
The panel holds about 83,000 compounds, 20% with a hit somewhere; the sample as a whole holds those more often. Activity calls are given as the source filed them. How the source made its calls: active means growth percent below 10; inactive means the rest.
Would you kindly list growth for each of these compounds?

# input compound: `CCn1c(-c2cc3c([nH]c4ccccc43)c(-c3cccc(O)c3)n2)n[nH]c1=S` ; wanted: its growth
18.1% (inactive)

Fill in: growth of `O=C1/C=C/[C@@H](O)[C@@H]2C[C@@H](O)C[C@H]2/C=C/CCC[C@H](CCO)O1` is ___
12.3% (inactive)

# input compound: `CC(=O)c1sc2sc(C(C)=O)c(C)c2c1C` ; wanted: its growth
107% (inactive)

# growth lookup, item `[2H]C([2H])([2H])Oc1ccc(F)cc1/C=C/C(=O)/C=C(O)/C=C/c1cc(F)ccc1OC([2H])([2H])[2H]`
85.1% (inactive)

Which growth is reported for this compound? `COc1ccc(/C=C/c2ccc3ccccc3n2)c(OC)c1`
45.3% (inactive)

Please report the recorded growth for `Cc1c(Cl)cccc1C(=O)Nc1nc2c(s1)CN(C(=O)c1ccc(C(F)(F)F)cc1)CC2` .
10.2% (inactive)

# input compound: `COc1ccc(N2CCC(=S)NC2=S)cc1` ; wanted: its growth
109% (inactive)

Which growth is listed for `CCN1CCN(CC(=O)Nc2ccc(-c3cn4c(n3)sc3cc(Oc5ccnc(C(=O)NC)c5)ccc34)cc2)CC1` ?
73.8% (inactive)

Requested field: growth. Item: `CC(=O)c1ccc(Nc2nccc(-c3ccc4ccccc4c3)n2)cc1`
97.6% (inactive)

What growth value was documented for this compound, `O=C(O)COc1ccc(Cl)c(Cl)c1` ?
112% (inactive)

----------
- Test system: NCI-H460 lung
- RUN_DESCRIPTION: NCI-60 one-dose screen, 48 h (100 = growth as untreated, 0 = no growth, -100 = all killed)
- CONDITION_CONTEXT: 10 µM unless noted
This is part of a sample that, as a whole, favours compounds with a hit. Of some 83,000 tested, about 20% had one in any assay.
Assign growth to each entry below.
Response body: numeric value in %, unit text excluded.

Return growth measured with NCI-H460 lung given this compound: `O=C(/C=C(O)/C=C/c1cccc2[nH]ccc12)/C=C/c1cccc2[nH]ccc12`
98.3

# get_value(readout= growth, system= NCI-H460 lung) for `COc1cc(-c2nc3c(ncc4ccc(=O)n(-c5ccccc5)c43)s2)cc(OC)c1OC`
84.3

State its growth on NCI-H460 lung: `COc1ccc(-c2nc3c(N)c(CO)cnc3s2)cc1`
97.6

What value of growth on NCI-H460 lung does `CN1CCN(CCOc2ccc(-c3cnc4c(-c5cccc(F)c5F)cnn4c3)cc2)CC1` have?
-55.9

Lookup: growth / NCI-H460 lung / COc1ccc(C2CC(c3cc(OC)c(OC)c(OC)c3)=NO2)cc1OCCCCOc1cc2c(cc1OC)C(=O)N1CCC[C@H]1C=N2 (stereo partly specified)
-14.8

Observed growth on NCI-H460 lung for CCC1S/C(=N\N=C(\C)c2cc3cc(Cl)ccc3o2)N(c2ccccc2)C1=O (stereo unspecified) , please.
122

Can you look up growth on NCI-H460 lung for Nc1nc(N)c2c(n1)NC(c1cccc(Nc3ccnc4cc(C(F)(F)F)ccc34)c1)CC(c1ccc(Br)cc1)=N2 (stereo unspecified) ?
29.9

Provide the documented growth with NCI-H460 lung as the system for `CCOC(=O)C1=C(C)C(Cl)=N/C1=C\c1[nH]c(Cl)c(C)c1C(=O)OCC`
108

Checklist item: growth tested on NCI-H460 lung, entry `CN1CCN(CC(=O)Nc2ccc3ncnc(Nc4ccc(Oc5cccc(C(F)(F)F)c5)c(Cl)c4)c3c2)CC1` , value?
-69.4

Request body: readout growth, system NCI-H460 lung, query `CN(C)c1ccc(-c2ccc3c(c2)c(-c2ccccc2)nc(=O)n3C)cn1` . Return the value.
19.7

Reported growth for NCI-H460 lung, given C#CC#CC#CC#CC#CC#CC#CC#CCC1OC[C@H](COC(=O)O[C@@H](C(=O)O[C@H]2C[C@@]3(O)[C@@H](OC(=O)c4ccccc4)[C@@H]4[C@]5(OC(C)=O)CO[C@@H]5C[C@H](O)[C@@]4(C)C(=O)[C@H](OC(C)=O)C(=C2C)C3(C)C)[C@@H](NC(=O)c2ccccc2)c2ccccc2)O1 (stereo partly specified) ?
10.3

Notebook entry, NCI-H460 lung assay: growth of CC1=CCC(OC(=O)C(C)(C)CC(O)(C(C)O)C(O)C2(C)C=CC(Cc3ccc(C(C)C)cc3)(C(C)C)CC2)(C(C)C)CC1 (stereo unspecified) = ?
103

Identify the measured growth of `O=C(CCCCCCN1CC(=O)N2[C@H](c3ccc(Cl)cc3)c3[nH]c4ccccc4c3C[C@@H]2C1=O)NO` for NCI-H460 lung.
54.2

Give recorded growth with NCI-H460 lung for the following compound: `CC/C(Cc1ccccc1)=C(\c1ccc(OCCCN(C)C)cc1)c1ccc(OC(=O)NCc2ccccc2)cc1`
7.02

# returns recorded growth (system: NCI-H460 lung) for `CCOC(=O)c1c(C)nc2c(c1N)CC(=O)N2Cc1ccc(OC)cc1`
5.12

Reported growth for NCI-H460 lung, given `COC(=O)c1c2c(c(C)[n+]([O-])c1C)C(=O)C(NCc1cccc(Cl)c1)=CC2=O` ?
10.1

Every entry's value here was drawn from PubChem BioAssay (NCI).
